Reference source for all entries: patent US20140289906A1

Test: 14C assay: 14CO2 capture from [14C]-carboxyl-labeled dicamba with IPTG-induced recombinant E. coli cells
Settings: IPTG-induced recombinant E. coli cells; 14CO2 from [14C]-carboxyl-labeled dicamba

[
  {
    "Molecule": "12 (protein, listed as Zymoseptoria tritici) MALGKVAFEEAFALPRFKERTTWWAGLFAVDPEKHTREINDINKLRIEKMDQFGVGYTLLSYTAPGVQDVWQQEEADALAREVNDHVAAEIKGHEDRLGALATLSMHDPQTASAELRRCIKDYGFKGALVNDTQRNDESGTGMIFYDGPEWDVFWSTVQELDVPFYLHPRNPTGVFMEKLWAPRKWLVGPPLSFAQGVSLHLLGMVTNGTFDRFPNLQVIIGHLGEHLPFDLWRINHWFEDIKKPLGLDCKKTIREYFNENIWITTSGHFSTPTLEYCIKEIGAERILFSIDYPFEKFEDACDWYDGVELDGPDTVKKIGRENAKKLFKLGAFKDDSA",
    "Dicamba Decarboxylase Activity": "No"
  },
  {
    "Molecule": "7 (protein, listed as Legionella pneumophila) MAIVDFETHFITEACIDYLTQRQEVPKLVPELNGAYTMCFTPDVSLFHTSALMEELLSLNEQRLAIMDQAGVTIQVLSLTTINGIDSCPGDENKSTALAREVNDQLYSAIQRHPERFKGFASISPYDVKEGVKELERAISQLGFVGWLTHSNFGEDNYLDDKTYWPLLEAAEGLNIPIYLHPNVPIMREFGKYGFALGGSALGFEFDTALCLMRMILGGVFDAFPKLKIMLGHLGETMPFLMERLDHLYRIPDLKAYRPSIQRIPSEVLRQNVYITTSGRFFVPALRYVLEVMGEDRVLFASDYPMESLLDATRFIQDSDLSNQTKQKIFSINAKNLNLI",
    "Dicamba Decarboxylase Activity": "No"
  },
  {
    "Molecule": "21 (protein, listed as Agrobacterium tumefaciens) MAQGKVALEEHFAIPETLQDSAGFVPGDYWKELQHRLLDIQDTRLKLMDAHGIETMILSLNAPAVQAIPDRKKAIEIARRANDVLAEECARRPDRFLAFAALPLQDPDAATQELQRCVNDLGFVGALVNGFSQEGDGQTPLYYDLPQYRPFWGEVEKLDVPFYLHPRNPLPQDSRIYDGHPWLLGPTWAFAQETAVHALRLMASGLFDAHPRLNIILGHMGEGLPYMMWRIDHRNAWVKLPPRYPAKRRFVDYFNENFHITTSGNFRTQTLIDAILEIGADRILFSTDWPFENIDHASDWFNATTIAEADRVKIGRTNARRLFKLDGR",
    "Dicamba Decarboxylase Activity": "High"
  },
  {
    "Molecule": "19 (protein, listed as Talaromyces marneffei) MATPIITLEEHYISSAIRDASETDHYAVFPSQIISKLNTLSTERLQDLDNGHVSLQVISHGPGAQPPYLCQAANDELASAISANPTRFAGFALLPIAEPQLAVQELERCITQHKFVGALIDNHTNGQFYDDQKFWPVFEKAQELDAPIYVHPSYPDEESGVAAHYRGNYDDRIAAALGAYGWGWHSDTALSILRLFAAGLFDTYPNIKIIIGHMGEMLPFQLERVIGIASRFGRSRGLREVWTQNIWVTTSGMFALAPLACLLQTMPIERVLYSVDYPFSANEKGFAFLEEIKKSGLIKEGEDWERFLYKNAQELLKVNV",
    "Dicamba Decarboxylase Activity": "High"
  }
]
